assay: qHTS Assay for Lipid Storage Modulators in Drosophila S3 Cells; settings: BODIPY lipid droplet fluorescence, 18-24 h, cells fed with added oleic acid; measured here: cell count max response;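 note: cells counted by Cell Tracker Red CMTPX staining in the red channel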
The campaign covered roughly 320,000 compounds. About 2,100 (0.66%) were called active. Roughly 53% stayed inconclusive and do not appear here. Shown is part of a subset that was picked to be rich in actives.
quantity.name: cell number change (%)
Respond numerically; units are % and should not be typed.

{"compound": "O=C(/C=C/c1ccccc1)Nn1c(-c2cccs2)nc2ccccc2c1=O", "cell number change / %": 20.7}
{"compound": "COC(=O)C(NC(=O)c1ccccc1C)(Nc1ncc(S(=O)(=O)c2ccc([N+](=O)[O-])cc2)s1)C(F)(F)F (stereo not drawn)", "cell number change / %": -2.46}
{"compound": "CC(=O)c1cccc(NC(=O)COC(=O)c2ccc(S(C)(=O)=O)c([N+](=O)[O-])c2)c1", "cell number change / %": -10.3}
{"compound": "CC(=O)Nc1ccc(Nc2nc(C)cc(C)n2)cc1", "cell number change / %": 7.77}
{"compound": "O=C(NC(Nc1nc2ccc([N+](=O)[O-])cc2s1)(C(F)(F)F)C(F)(F)F)c1ccccc1Cl", "cell number change / %": -26.5}
{"compound": "Cc1ccccc1NC(=O)COC(=O)c1ccc(S(=O)(=O)N2CCCC2)cc1", "cell number change / %": 10.7}
{"compound": "CCc1cc(=O)oc2c3c(cc(OCC(=O)NCCC(=O)O)c12)OC(C)(C)CC3", "cell number change / %": 4.77}
{"compound": "COc1cccc(CN2C(=O)C(C)N(C(=O)c3ccccc3)c3ccccc32)c1 (stereo not drawn)", "cell number change / %": -9.22}

Then this compound:
Short answer for CC(C)(C)C1CCc2c(sc(NC(=O)CSc3nnc(-c4ccccc4)o3)c2C#N)C1 (stereo not drawn) : cell number change was -0.658

Just for reference, PubChem BioAssay AID2685 is where these values come from.
